Test system: U251 human glioblastoma cell line
Experiment: in vitro FM-HCR assay of MGMT activity (mPlum O^6MeG reporter plasmid)
Assay type: cell-based
Settings: 0.1% DMSO; U251 cells; flow cytometry 24 h after transfection; damaged/undamaged reporter; inversely related to MGMT activity
Description: The present Example includes, in part, an in vitro fluorescence multiplex host cell reactivation (FM-HCR) assay in which a reporter plasmid with O^6MeG-containing oligonucleotides is used. The oligonucleotides induce transcription errors that lead to expression of fluorescent mPlum protein. […] All transfected cells were analyzed by flow cytometry at 24-hours after transfection. Data was analyzed as previously described in Nagel et al., 2014 PNAS USA 111 (18): E1823-32 and Piett et al., 2021 Nat. […]
Please note: t applies when Reporter expression (%) mean, DMSO is 20% or greater, and f applies otherwise.

L33W: MGMT polypeptide with mutation L33W (protein) MDKDCEMKRTTLDSPLGKLELSGCEQGLHEIKWLGKGTSAADAVEVPAPAAVLGGPEPLMQCTAWLNAYFHQPEAIEEFPVPALHHPVFQQESFTRQVLWKLLKVVKFGEVISYQQLAALAGNPKAARAVGGAMRGNPVPILIPCHRVVCSSGAVGNYSGGLAVKEWLLAHEGHRLGKPGLGGSSGLAGAWLKGAGATSGSPPAGRN ... f
R135K: MGMT polypeptide with mutation R135K (protein) MDKDCEMKRTTLDSPLGKLELSGCEQGLHEIKLLGKGTSAADAVEVPAPAAVLGGPEPLMQCTAWLNAYFHQPEAIEEFPVPALHHPVFQQESFTRQVLWKLLKVVKFGEVISYQQLAALAGNPKAARAVGGAMKGNPVPILIPCHRVVCSSGAVGNYSGGLAVKEWLLAHEGHRLGKPGLGGSSGLAGAWLKGAGATSGSPPAGRN ... f
S159W: MGMT polypeptide with mutation S159W (protein) MDKDCEMKRTTLDSPLGKLELSGCEQGLHEIKLLGKGTSAADAVEVPAPAAVLGGPEPLMQCTAWLNAYFHQPEAIEEFPVPALHHPVFQQESFTRQVLWKLLKVVKFGEVISYQQLAALAGNPKAARAVGGAMRGNPVPILIPCHRVVCSSGAVGNYWGGLAVKEWLLAHEGHRLGKPGLGGSSGLAGAWLKGAGATSGSPPAGRN ... t

Query: Tell me whether Reporter expression (%) mean, DMSO is at least 20% here: S159I: MGMT polypeptide with mutation S159I (protein) MDKDCEMKRTTLDSPLGKLELSGCEQGLHEIKLLGKGTSAADAVEVPAPAAVLGGPEPLMQCTAWLNAYFHQPEAIEEFPVPALHHPVFQQESFTRQVLWKLLKVVKFGEVISYQQLAALAGNPKAARAVGGAMRGNPVPILIPCHRVVCSSGAVGNYIGGLAVKEWLLAHEGHRLGKPGLGGSSGLAGAWLKGAGATSGSPPAGRN
Reply: f

Query: Likewise for N137F: MGMT polypeptide with mutation N137F (protein) MDKDCEMKRTTLDSPLGKLELSGCEQGLHEIKLLGKGTSAADAVEVPAPAAVLGGPEPLMQCTAWLNAYFHQPEAIEEFPVPALHHPVFQQESFTRQVLWKLLKVVKFGEVISYQQLAALAGNPKAARAVGGAMRGFPVPILIPCHRVVCSSGAVGNYSGGLAVKEWLLAHEGHRLGKPGLGGSSGLAGAWLKGAGATSGSPPAGRN ?
Reply: t

Query: Now the molecule L33F: MGMT polypeptide with mutation L33F (protein) MDKDCEMKRTTLDSPLGKLELSGCEQGLHEIKFLGKGTSAADAVEVPAPAAVLGGPEPLMQCTAWLNAYFHQPEAIEEFPVPALHHPVFQQESFTRQVLWKLLKVVKFGEVISYQQLAALAGNPKAARAVGGAMRGNPVPILIPCHRVVCSSGAVGNYSGGLAVKEWLLAHEGHRLGKPGLGGSSGLAGAWLKGAGATSGSPPAGRN
Reply: f

Query: Cool, now P138K: MGMT polypeptide with mutation P138K (protein) MDKDCEMKRTTLDSPLGKLELSGCEQGLHEIKLLGKGTSAADAVEVPAPAAVLGGPEPLMQCTAWLNAYFHQPEAIEEFPVPALHHPVFQQESFTRQVLWKLLKVVKFGEVISYQQLAALAGNPKAARAVGGAMRGNKVPILIPCHRVVCSSGAVGNYSGGLAVKEWLLAHEGHRLGKPGLGGSSGLAGAWLKGAGATSGSPPAGRN
Reply: f

Query: And then P140K: O^6BG-resistant MGMT polypeptide with K at position 140, SEQ ID NO: 8; used as control (protein, REGION 1..207: note = Synthetic: MGMTP140K, used as control) MDKDCEMKRTTLDSPLGKLELSGCEQGLHEIKLLGKGTSAADAVEVPAPAAVLGGPEPLMQCTAWLNAYFHQPEAIEEFPVPALHHPVFQQESFTRQVLWKLLKVVKFGEVISYQQLAALAGNPKAARAVGGAMRGNPVKILIPCHRVVCSSGAVGNYSGGLAVKEWLLAHEGHRLGKPGLGGSSGLAGAWLKGAGATSGSPPAGRN , what is it?
Reply: t

Query: Can you check P140R: MGMT polypeptide with mutation P140R (protein) MDKDCEMKRTTLDSPLGKLELSGCEQGLHEIKLLGKGTSAADAVEVPAPAAVLGGPEPLMQCTAWLNAYFHQPEAIEEFPVPALHHPVFQQESFTRQVLWKLLKVVKFGEVISYQQLAALAGNPKAARAVGGAMRGNPVRILIPCHRVVCSSGAVGNYSGGLAVKEWLLAHEGHRLGKPGLGGSSGLAGAWLKGAGATSGSPPAGRN next?
Reply: t

Origin of values: patent US20250135039A1
